experiment: AP1 Signaling Pathway (AID 357); settings: ME-180 AP-1-bla reporter, EGF-induced, beta-lactamase ratio, 5 h; at 17.2 µM (top of the series) unless noted;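 further: ME-180 reporter cells stimulated with EGF at its EC50 level; on the % scale 0 is the no-effect control and ±100 the full control effect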
Results filed as inconclusive are left out.
Property label: activity change, negative = inhibition (%)
Answers are plain numbers, in %.

I'm hoping you can list activity change, negative = inhibition for every molecule here, please.
1. CCCCn1c2nc3ccccc3nc2c2c(=O)n(CC(C)C)cnc21
2. CCn1nc(NC(=O)c2cccnc2)c2cc3ccccc3nc21
3. N#Cc1c(N)sc(=S)c2c1CCCCC2
4. Cn1ccnc1SCCC#N
5. NS(=O)(=O)c1ccc(-c2ccc(C=NC3CCS(=O)(=O)C3)o2)cc1 (stereo not given)
6. CCOC(=O)C(c1ccccc1)N1CCN(c2ccc(OC)cc2)CC1 (stereo not given)

[-1.88, -12.7, 10.8, -0.27, 19.2, -19.8]

I'm hoping you can list activity change, negative = inhibition for every molecule here, please.
1. N#Cc1nc(COc2ccc(Cl)cc2)oc1N1CCN(Cc2ccccc2)CC1
2. CCCCCCCCN[C@@H](C)[C@H](O)c1ccc(SC(C)C)cc1
3. CCn1cc(C(=O)NCC2CCCO2)c(=O)c2cc(F)c(N3CCN(C)CC3)cc21 (stereo not given)
4. Cc1cc(C)n(-c2c(F)c(F)c(CN3CCCCC3)c(F)c2F)n1

1. -16.3
2. 0.133
3. -11.4
4. -3.48

I'm hoping you can list activity change, negative = inhibition for every molecule here, please.
1. CCCCCNC(=O)c1c(N)n(/N=C/c2ccco2)c2nc3ccccc3nc12
2. O=C(Nc1ncccc1Cl)c1cccc(F)c1
3. Cn1ccnc1C(O)c1ccc(OCc2ccccc2)cc1 (stereo not given)
4. CCc1nc2sc3c(c2c(=O)o1)CCCC3

20.3
2.04
-6.56
-11.3

Name the recorded activity change, negative = inhibition for `CCCc1nc(N2CCOCC2)c(C#N)c2c1CCCC2` .
-22

* * *

tested on: CP217; test: qHTS profiling for inhibitors of Plasmodium falciparum proliferation (AID 504749); further: nearly all actives have a fitted effect of over 60% in size; details: P. falciparum in erythrocytes, SYBR Green DNA, 72 h; series mostly up to 28.7 µM
Records with an inconclusive call do not appear. The source made the active and inactive calls. The call rests on the fitted dose curve; in most records, active means well fitted inhibition curve with a large enough effect; inconclusive means small, poorly fitted or top-dose-only effect; inactive means flat fitted curve, though single readings scatter.
Please reply with one of these outcomes: T = active, F = inactive

Completed entries (count: 6):
Compound	Assigned label
CCCCC/C(C=O)=C/c1ccccc1	F
Cc1cn([C@H]2CC(F)[C@@H](CO)O2)c(=O)[nH]c1=O (stereo partly drawn)	F
CO/N=C(/C(=O)N[C@@H]1C(=O)N2C(C(=O)O)=C(CSc3nnnn3C)CS[C@H]12)c1csc(N)n1	F
CC1=C(C/C=C(\C)CCCC(C)CCCC(C)CCCC(C)C)C(=O)c2ccccc2C1=O (stereo not drawn)	F
CCCCCCCCCCCCCCCC(=O)OCC(COP(=O)(O)OCC[N+](C)(C)C)OC(=O)CCCCCCCCCCCCCCC (stereo not drawn)	F
CC[C@H](C)[C@H]1O[C@]2(CC[C@@H]1C)C[C@@H]1C[C@@H](C/C=C(\C)[C@H](O[C@@H]3C[C@H](OC)[C@H](O[C@@H]4C[C@H](OC)[C@@H](O)[C@H](C)O4)[C@H](C)O3)[C@@H](C)/C=C/C=C3\CO[C@@H]4[C@H](O)C(C)=C[C@@H](C(=O)O1)[C@]34O)O2	T

Tell me the recorded outcome of this test for OCC1O[C@H](Oc2ccc(O)cc2)C(O)C(O)C1O (stereo partly drawn) .
F

Tell me the recorded outcome of this test for CC(=O)C1(O)Cc2c(O)c3c(c(O)c2C(OC2CC(N)C(O)C(C)O2)C1)C(=O)c1c(O)cccc1C3=O (stereo not drawn) .
T

Tell me the recorded outcome of this test for `Oc1cc2cc(CCN3CCN(c4nsc5ccccc45)CC3)c(Cl)cc2[nH]1` .
F

Tell me the recorded outcome of this test for CCC(C)C(N)C(=O)O (stereo not drawn) .
F

Tell me the recorded outcome of this test for CC(O)C1CCC2C3CCC4CC(O)CCC4(C)C3CCC12C (stereo not drawn) .
F

* * *

system: CP247; assay: qHTS profiling for inhibitors of Plasmodium falciparum proliferation (AID 504749); further: nearly all actives have a fitted effect of over 60% in size; settings: P. falciparum in erythrocytes, SYBR Green DNA, 72 h; series mostly up to 28.7 µM
Results filed as inconclusive are left out. Activity calls are given as the source filed them. Calls come from the whole dose curve; as a rule, active = well fitted inhibition curve with a large enough effect; inconclusive = small, poorly fitted or top-dose-only effect; inactive = flat fitted curve, though single readings scatter.
Please reply with one of these outcomes: 1.0 for active, 0.0 for inactive

Compound	Assigned label
CCCSS/C(CCO)=C(/C)N(C=O)Cc1cnc(C)nc1N	0.0
COc1cccc(OC)c1C(=O)NC1C(=O)N2C1SC(C)(C)C2C(=O)O (centres undefined)	0.0
CC(C)C(=O)OCC(=O)[C@@]12OC(C3CCCCC3)O[C@@H]1CC1C3CCC4=CC(=O)C=C[C@]4(C)C3[C@@H](O)C[C@@]12C (some centres undefined)	1.0
C=C1N[C@]2(C(=O)COC(C)=O)[C@@H](C[C@H]3[C@@H]4CCC5=CC(=O)C=C[C@]5(C)[C@H]4[C@@H](O)C[C@@]32C)O1	0.0
C/C(=C(/CCOC(=O)C(C)C)SS/C(CCOC(=O)C(C)C)=C(\C)N(C=O)Cc1cnc(C)nc1N)N(C=O)Cc1cnc(C)nc1N	0.0

Tell me the recorded outcome of this test for CCCCC(=O)OCC(=O)[C@]1(O)Cc2c(O)c3c(c(O)c2[C@H](OC2CC(NC(=O)C(F)(F)F)C(O)C(C)O2)C1)C(=O)c1c(OC)cccc1C3=O (some centres undefined) .
1.0

Tell me the recorded outcome of this test for `CCN(CC)C(=O)Nc1ccc(OC[C@H](O)CNC(C)(C)C)c(C(C)=O)c1` .
0.0

Tell me the recorded outcome of this test for CC(=O)OCC(=O)[C@@]1(O)CCC2C3CCC4=CC(=O)C=CC4(C)C3C(O)C[C@]21C (some centres undefined) .
0.0

Tell me the recorded outcome of this test for Nc1ncn(C2C[C@H](O)[C@@H](CO)O2)c(=O)n1 (some centres undefined) .
0.0

Tell me the recorded outcome of this test for COC(c1ccccc1)(c1ccccc1)C(Oc1nc(C)cc(C)n1)C(=O)O (centres undefined) .
0.0

Tell me the recorded outcome of this test for OCCN1CC(O)C(O)C(O)C1CO (centres undefined) .
0.0

Tell me the recorded outcome of this test for `CN[C@H](C)CCC=C(C)C` .
1.0

* * *

Record form. Attribute: activity change, negative = inhibition. Fill in for each entry.
assay: AP1 Signaling Pathway (AID 357); settings: ME-180 (cervical carcinoma) AP-1-bla reporter, EGF-induced, beta-lactamase ratio, 5 h; at 17.2 µM (top of the series) unless noted;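 further: ME-180 reporter cells stimulated with EGF at its EC50 level; on the % scale 0 is the no-effect control and ±100 the full control effect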
Results filed as inconclusive are left out. Calls of active or inactive are those of the source. Calls come from the whole dose curve; as a rule, active = well fitted curve in either direction with a large enough effect (not every such curve was filed as active); inconclusive = small, poorly fitted or top-dose-only effect, or another doubt; inactive = flat fitted curve, though single readings scatter.

Molecule	Reported result
CCOC(=O)CC(C#N)c1cn(C)c2ccccc12 (configuration not stated)	8.21% (inactive)
COCc1cc(=O)[nH]c(Nc2nc3ccc(C)cc3o2)n1	-0.718% (inactive)
COCCOC(=O)C1=C(C)OC(N)=C(C#N)C1c1ccco1 (configuration not stated)	0.22% (inactive)
COc1ccc(C2C(C#N)=C(N)SC(N)=C2C#N)cc1OC	5.54% (inactive)
COc1ccc(C(=O)NCC(=O)n2nc(C)cc2C)cc1OC	6.38% (inactive)
CC1=C(c2ccc(Cl)cc2)[N+](=O)C(C)(C)N1[O-]	8.72% (inactive)

I'm hoping you can list activity change, negative = inhibition for every molecule here, please.
1. CC(O)(C#CCN1CCOCC1)c1ccccc1 (configuration not stated)
2. CCN1C(=O)CC(N2CCN(c3ccc(OC)cc3)CC2)C1=O (configuration not stated)
3. COc1cccc(OC)c1-c1nn2c(-c3ccccc3Cl)nnc2s1
4. Cc1cc(C)nc(NC2=NCC(=O)N2c2cccc(Cl)c2)n1
5. CCOC(=O)CC(=O)CSc1nc(N)c(C#N)c(-c2ccc(F)cc2)c1C#N
6. CCOc1ccc(C2/C(=C(/O)c3ccc(F)cc3)C(=O)C(=O)N2CCCN(C)C)cc1 (configuration not stated)
7. O=C(Nc1ccccn1)NC(C(F)(F)F)C(F)(F)F
8. CCN(CC)CCN1C(=O)C(O)=C(C(=O)c2ccco2)C1c1ccccn1 (configuration not stated)

1: -0.153% (inactive); 2: 7.27% (inactive); 3: -22.5% (inactive); 4: 3.62% (inactive); 5: -26.2% (inactive); 6: 10.1% (inactive); 7: -3.59% (inactive); 8: -3.97% (inactive)

I'm hoping you can list activity change, negative = inhibition for every molecule here, please.
1. CC(C)(C)OC(=O)NCCC(=O)Oc1ccc2ccc(=O)oc2c1
2. Cc1nc2sc(C#N)c(N)c2c2c1CCCC2
3. COCCCn1c(C)nc2c(c1=O)c1nc3ccccc3nc1n2CCc1ccccc1
4. O=C(O)CC1SC(=Nc2cccc(C(F)(F)F)c2)NC1=O (configuration not stated)
5. CCN(CC)C(=O)CSc1nc2ccccc2c(=O)n1CC1CCCCC1
6. COc1ccc(C2(CN(C(C)=O)C(C)=O)CCCC2)cc1OC
7. CC[C@H](c1ccccc1)c1cc(C(C)(C)C)cc(C(C)(C)C)c1O
8. CN1C(=O)NC(c2ccccc2)C2=C1CN(Cc1ccccc1)C2=O (configuration not stated)

["16.1% (inactive)", "-15.7% (inactive)", "-6.69% (inactive)", "7.22% (inactive)", "-21.3% (inactive)", "4.19% (inactive)", "7.36% [at 7.69 µM] (inactive)", "-1.08% (inactive)"]
